From: patent US10676429B2

# assayOverview: Cytotoxicity in HepG2 cells, 4 days, Resazurin assay
# conditionSummary: human, HepG2 cells
quantityKind: CC50 at 4 days

A selection of reference data follows.
[
  {
    "compoundStructureString": "CC1(NS(=O)(=O)c2cc(Cl)cc(C(=O)Nc3ccc(F)c(C(F)F)c3)c2F)COC1",
    "quantityKind": "CC50 at 4 days",
    "value": "> 25 µM"
  },
  {
    "compoundStructureString": "N#Cc1cc(NC(=O)c2c(F)ccc(S(=O)(=O)N[C@H]3CCOC3)c2F)ccc1F",
    "quantityKind": "CC50 at 4 days",
    "value": "> 25 µM"
  },
  {
    "compoundStructureString": "O=C(Nc1ccc(F)cc1)c1cc(S(=O)(=O)N2CCC3(CC2)OCCO3)ccc1F",
    "quantityKind": "CC50 at 4 days",
    "value": "> 50 µM"
  },
  {
    "compoundStructureString": "Cc1cc(NC(=O)c2cccc(S(=O)(=O)NC3CCCC3)c2)ccc1C#N",
    "quantityKind": "CC50 at 4 days",
    "value": "10.3 µM"
  },
  {
    "compoundStructureString": "CN(C(=O)C1CCCCC1)S(=O)(=O)c1cccc(C(=O)Nc2ccc(F)cc2)c1",
    "quantityKind": "CC50 at 4 days",
    "value": "97.2 µM"
  },
  {
    "compoundStructureString": "O=C(Nc1ccccc1)c1cncc(S(=O)(=O)NC2CCCCC2)c1",
    "quantityKind": "CC50 at 4 days",
    "value": "68 µM"
  },
  {
    "compoundStructureString": "CC[C@H](C)NS(=O)(=O)c1cccc(C(=O)Nc2ccc(F)cc2)c1",
    "quantityKind": "CC50 at 4 days",
    "value": "> 25 µM"
  }
]

Ask: // returns reported CC50 at 4 days for input CN(C)S(=O)(=O)c1ccc(F)c(C(=O)Nc2ccccc2)c1
Reply: > 100 µM
